# Measured Target: ΔF508-CFTR (Homo sapiens, UniProt P13569, DEL508-508)
# Construct: host or cells: CFBE41o-, doxycycline-inducible
# Sequence (P13569 with tags, fused parts or gaps DEL508-508): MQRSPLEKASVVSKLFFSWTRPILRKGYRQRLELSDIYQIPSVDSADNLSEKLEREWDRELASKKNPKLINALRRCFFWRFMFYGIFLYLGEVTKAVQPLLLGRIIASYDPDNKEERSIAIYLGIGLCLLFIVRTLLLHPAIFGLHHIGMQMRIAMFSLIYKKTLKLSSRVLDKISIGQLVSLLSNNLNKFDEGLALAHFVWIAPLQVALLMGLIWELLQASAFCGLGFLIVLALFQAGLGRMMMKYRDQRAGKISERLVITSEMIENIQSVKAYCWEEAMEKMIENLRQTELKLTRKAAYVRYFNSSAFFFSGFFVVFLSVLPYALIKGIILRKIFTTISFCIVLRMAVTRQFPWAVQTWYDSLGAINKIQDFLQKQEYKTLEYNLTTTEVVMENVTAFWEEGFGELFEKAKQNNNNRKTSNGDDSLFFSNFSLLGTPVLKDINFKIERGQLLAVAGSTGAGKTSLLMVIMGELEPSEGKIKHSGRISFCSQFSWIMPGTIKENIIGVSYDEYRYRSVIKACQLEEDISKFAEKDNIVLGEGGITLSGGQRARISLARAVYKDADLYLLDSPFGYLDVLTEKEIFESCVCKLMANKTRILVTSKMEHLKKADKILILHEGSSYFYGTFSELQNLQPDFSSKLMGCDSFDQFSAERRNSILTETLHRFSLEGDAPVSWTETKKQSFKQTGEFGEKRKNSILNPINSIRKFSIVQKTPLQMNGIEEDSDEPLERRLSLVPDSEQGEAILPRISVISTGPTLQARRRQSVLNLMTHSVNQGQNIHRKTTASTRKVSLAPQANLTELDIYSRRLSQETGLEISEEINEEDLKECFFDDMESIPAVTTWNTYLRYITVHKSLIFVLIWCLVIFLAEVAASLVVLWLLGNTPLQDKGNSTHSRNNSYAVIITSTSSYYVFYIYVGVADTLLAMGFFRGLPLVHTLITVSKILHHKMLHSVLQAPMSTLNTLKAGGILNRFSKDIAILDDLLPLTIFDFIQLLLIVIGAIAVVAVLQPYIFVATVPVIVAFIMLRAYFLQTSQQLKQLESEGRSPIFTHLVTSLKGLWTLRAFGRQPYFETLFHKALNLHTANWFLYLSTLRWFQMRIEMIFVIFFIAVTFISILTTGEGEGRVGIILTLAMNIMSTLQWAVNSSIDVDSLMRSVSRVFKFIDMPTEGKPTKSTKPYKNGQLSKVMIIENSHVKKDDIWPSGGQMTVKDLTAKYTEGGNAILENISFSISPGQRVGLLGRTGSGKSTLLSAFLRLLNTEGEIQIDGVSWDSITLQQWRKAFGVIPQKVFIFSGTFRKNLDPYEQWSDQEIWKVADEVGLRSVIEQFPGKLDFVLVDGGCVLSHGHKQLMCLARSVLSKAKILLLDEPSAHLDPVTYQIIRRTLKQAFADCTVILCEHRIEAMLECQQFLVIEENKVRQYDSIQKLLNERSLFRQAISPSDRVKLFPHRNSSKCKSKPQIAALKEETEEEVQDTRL
# Test Name: CFTR cell surface levels using HRP-tagged ΔF508-CFTR expressing CFBE cells, intrinsic corrector capacity
# Format: cell-based
# Stated Conditions: HRP-tagged ΔF508-CFTR CFBE41o- cells, compounds alone (intrinsic corrector capacity), 20 hours at 33° C.; read-out: EC50
Result Type: EC50

Test Smiles: CNC(=O)c1nn(-c2ccccc2)c2nc(C(=O)O)cc(-c3ccc(N4CCOCC4)cc3)c12
Result Type: EC50
Obs Value: > 10 µM
//
Test Smiles: CC(=O)N1CCC(c2cc(C(=O)O)nc3c2c(C)nn3-c2ccccc2)CC1
Result Type: EC50
Obs Value: > 10 µM
//
Test Smiles: Cc1nn(C2CCN(C)CC2)c2nc(C(=O)O)cc(-c3ccc(N4CCOCC4)cc3)c12
Result Type: EC50
Obs Value: > 10 µM

* * *

# Measured Target: ΔF508-CFTR (Homo sapiens, UniProt P13569, DEL508-508)
# Construct: host or cells: CFBE41o-, doxycycline-inducible
# Test Name: CFTR cell surface levels using HRP-tagged ΔF508-CFTR expressing CFBE cells, intrinsic corrector capacity
# Format: cell-based
# Stated Conditions: HRP-tagged ΔF508-CFTR expressing CFBE cells; intrinsic corrector capacity (no co-corrector); 33° C., 20 hours; read-out: EC50
pEC50: −log10 of the molar value.

Molecule: CC(=O)N1CC(Oc2nn(-c3ccccc3)c3nc(C(=O)O)cc(-c4ccc(N5CCOCC5)cc4)c23)C1
Value Qualifier: <
pEC50: 5.00
//
Molecule: CC(C)c1nn(-c2ccc(F)cc2)c2nc(C(=O)O)cc(N3CCN(CC4CCCN(C)C4)CC3)c12 (stereo not shown)
Value Qualifier: =
pEC50: 5.78
//
Molecule: CN1CCN(C2CCN(c3cc(C(=O)O)nc4c3c(C3CCC3)nn4-c3ccccc3)CC2)CC1
Value Qualifier: =
pEC50: 6.50
//
Molecule: CC(C)(C)OC(=O)N1CCC(Oc2nn(-c3ccccc3)c3nc(C(=O)O)cc(-c4ccc(N5CCC(C#N)CC5)nc4)c23)CC1
Value Qualifier: =
pEC50: 6.43

* * *

# Measured Target: ΔF508-CFTR (Homo sapiens, UniProt P13569, DEL508-508)
# Construct: host or cells: CFBE41o-, doxycycline-inducible
# Test Name: CFTR cell surface levels using HRP-tagged ΔF508-CFTR expressing CFBE cells, in the presence of a co-corrector
# Type: cell-based
# Stated Conditions: HRP-tagged ΔF508-CFTR expressing CFBE cells, in the presence of 3 μM co-corrector; read-out: EC50
Result Type: EC50 (nM)

Compound: Cc1nn(-c2ccccc2)c2nc(C(=O)O)cc(N3CCCCC3=O)c12 [compound 150]
Result Type: EC50
Value Qualifier: >
Obs Value: 10000
--
Compound: CS(=O)(=O)C1(COc2cc(C(=O)O)nc3c2c(C2CCC2)nn3-c2ccccc2)CCC1 [compound 632]
Result Type: EC50
Value Qualifier: >
Obs Value: 10000
--
Compound: O=C(O)c1cc(N2CCC(N3CCOCC3)CC2)c2c(C3CCC3)nn(-c3ccc4c(c3)CC4)c2n1 [compound 911]
Result Type: EC50
Value Qualifier: =
Obs Value: 74
--
Compound: O=C(O)c1cc(OC[C@H](F)C2CCOCC2)c2c(C3CCC3)nn(-c3ccccc3)c2n1 [compound 434]
Result Type: EC50
Value Qualifier: =
Obs Value: 328
--
Compound: COCCN(C)c1ccc(-c2cc(C(=O)O)nc3c2c(C(C)C)nn3-c2cccc(N3CCCC3)c2)cc1 [compound 238]
Result Type: EC50
Value Qualifier: =
Obs Value: 540
--
Compound: O=C(O)c1cc(N2CCC(CN3CCCOCC3)CC2)c2c(C3CCC3)nn(-c3ccccc3)c2n1 [compound 834]
Result Type: EC50
Value Qualifier: =
Obs Value: 114
